Target: Cytochrome P450 3A4 (Homo sapiens)
Sequence (P08684 whole entry): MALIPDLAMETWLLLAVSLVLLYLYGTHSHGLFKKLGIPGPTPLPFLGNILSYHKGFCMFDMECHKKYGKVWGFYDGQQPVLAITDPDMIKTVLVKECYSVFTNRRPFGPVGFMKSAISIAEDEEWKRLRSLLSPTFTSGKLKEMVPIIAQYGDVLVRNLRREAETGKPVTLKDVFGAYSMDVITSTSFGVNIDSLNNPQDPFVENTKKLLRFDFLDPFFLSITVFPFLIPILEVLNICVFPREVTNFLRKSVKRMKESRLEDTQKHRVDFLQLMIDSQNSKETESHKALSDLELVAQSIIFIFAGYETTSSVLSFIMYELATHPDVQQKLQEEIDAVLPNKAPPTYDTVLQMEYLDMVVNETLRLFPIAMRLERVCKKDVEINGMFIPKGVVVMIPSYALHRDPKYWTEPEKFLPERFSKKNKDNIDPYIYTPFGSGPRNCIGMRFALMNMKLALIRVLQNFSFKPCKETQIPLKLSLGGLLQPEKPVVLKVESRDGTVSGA
Conditions: Potency
value_type: AC50

Param readout= AC50; system= Cytochrome P450 3A4 (Homo sapiens); entry= "O=c1c(O)c(-c2ccc(O)cc2)oc2cc(O)ccc12" ; returns value.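 Further: confirmatory qHTS run detecting inhibitors and substrates of CYP3A4.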
39.8 µM (inconclusive)

Entry to check: CCCCCCC1=Cc2cc(OC)c(OC)cc2C(C(C(C)=O)C(=O)OCC)O1 (stereo unspecified)
3.16 µM (inconclusive)

What about "CNC(=O)N(C)c1nnc(C(C)(C)C)s1" ?
12.6 µM (inconclusive)

Subsequent entry: CC(C(=O)O)c1ccc(N2Cc3ccccc3C2=O)cc1 (stereo unspecified)
39.8 µM (inconclusive)

// repeat for "COc1cc(-c2oc3cc(O)ccc3c(=O)c2O)ccc1O" and report
10 µM (inconclusive)

What about this molecule? "COc1ccccc1-c1oc2ccccc2c(=O)c1OC"
20 µM (inconclusive)
